- Tested on: HepG2 human hepatocarcinoma cells
- test.method.notes: Rotenone ATP Assay (Complex I by-pass)
- Format: cell-based
- condition.description: summary statements also cover the Oxygraph assay
quantity: Complex I by-pass activity / restoring ATP production, in words

>>> test_result("CC(C)=CCC/C(C)=C/CC/C(C)=C/CC[C@@](C)(O)CCC1=C(C)C(=O)C(C)=C(C)C1=O (stereo in doubt) [Vatiquinone, reference compound]")
"not"
>>> test_result("CC1=C(C)C(=O)C(CC[C@](C)(O)CCCCCCCCC(F)(F)F)=C(C)C1=O [Compound N]")
"possess both activities"
>>> test_result("CC1(C)CC[C@]2(NC(=O)C(C)(F)F)CC[C@]3(C)[C@H](C(=O)C=C4[C@@]5(C)C=C(C#N)C(=O)C(C)(C)[C@@H]5CC[C@]43C)[C@@H]2C1 [Omaveloxolone, reference compound]")
"not"
>>> test_result("Cc1c(C)c2c(c(C)c1O)CC[C@@](C)(CCC=C(F)F)O2 [Compound 67]")
"possess both activities"
>>> test_result("CC1=C(C)C(=O)C(CC[C@](C)(O)CC/C=C(\\C)CC/C=C(\\C)CCC=C2COC2)=C(C)C1=O [Compound E]")
"possess both activities"
>>> test_result("CC1=C(C)C(=O)C(CC[C@@](C)(O)CC/C=C(\\C)CCC=C(F)F)=C(C)C1=O [Compound L]")
"possess both activities"

###

- System: intact HepG2 cells
- test.method.notes: Rotenone Oxygraph Assay (high-resolution respirometry)
- Format: cell-based, human
- condition.description: 1 μM rotenone, 10 μM compound
quantity: Rotenone Oxygraph Assay % Increase (Table 7)

>>> test_result("CC1=C(C)C(=O)C(CC[C@@](C)(O)COCCC[Si](C)(C)C)=C(C)C1=O [Compound M]")
"56.6 +/− 11.3%"
>>> test_result("COC1=C(OC)C(=O)C(CCCCCCCCCCO)=C(C)C1=O [Idebenone, reference compound]")
"70.2 +/− 15%"
>>> test_result("CC1=C(C)C(=O)C(CC[C@](C)(O)CCCCCCCCC(F)(F)F)=C(C)C1=O [Compound N]")
"44.8 +/− 10.3%"
>>> test_result("CC1=C(C)C(=O)C(CC[C@](C)(O)CC/C=C(\\C)CC/C=C(\\C)CCC=C2COC2)=C(C)C1=O [Compound E]")
"37.9 +/− 10.7%"
>>> test_result("CC1=C(C)C(=O)C(CC[C@@](C)(O)CC/C=C(\\C)CCC=C(F)F)=C(C)C1=O [Compound L]")
"58.6 +/− 15.5%"
>>> test_result("CC1=C(C)C(=O)C(CC[C@](C)(O)CC/C=C(\\C)CCC=C(F)F)=C(C)C1=O [Compound H]")
"54.3 +/− 13%"

###

- assayed.system: lipoxygenase-15 enzyme (Glycine max (Soybean) (Glycine hispida), UniProt P08170)
- test.method.notes: Lipoxygenase-15 Assay (LO-15 Assay)
- Assay type: biochemical
- condition.description: reduced forms tested
quantity: lipoxygenase-15 inhibition, in words

>>> test_result("CC1=C(C)C(=O)C(CC[C@](C)(O)CCCCCCCCC(F)(F)F)=C(C)C1=O [Compound N]")
"effective inhibitors"
>>> test_result("CC1=C(C)C(=O)C(CC[C@](C)(O)CC/C=C(\\C)CCC=C(F)F)=C(C)C1=O [Compound H]")
"effective inhibitors"
>>> test_result("CC1=C(C)C(=O)C(CC[C@@](C)(O)CC/C=C(\\C)CCC=C(F)F)=C(C)C1=O [Compound L]")
"effective inhibitors"
